target: Casein kinase I isoform alpha (Homo sapiens, UniProt P48729); assay: Inhibition of CK1 using KRRRALS(p)VASLPGL as substrate after 40 mins by scintillation counter
Sequence (P48729 whole entry, canonical isoform): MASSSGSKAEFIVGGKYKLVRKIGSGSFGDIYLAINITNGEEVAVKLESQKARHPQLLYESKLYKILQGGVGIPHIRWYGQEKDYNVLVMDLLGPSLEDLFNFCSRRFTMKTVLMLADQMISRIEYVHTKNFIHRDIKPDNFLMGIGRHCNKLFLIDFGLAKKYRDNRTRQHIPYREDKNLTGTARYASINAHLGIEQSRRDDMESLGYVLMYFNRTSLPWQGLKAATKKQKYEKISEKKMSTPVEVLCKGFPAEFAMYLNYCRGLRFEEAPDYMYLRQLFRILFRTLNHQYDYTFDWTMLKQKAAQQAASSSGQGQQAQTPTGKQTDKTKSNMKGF
pIC50: −log10 of the molar value.
Parameter: pIC50

COc1cc(OC)c(C=C2C(O)=Nc3ccccc32)c(OC)c1 6.00

[I] C[C@@H](NC(=O)Nc1cccc(Nc2ncc3c(N)[nH]nc3n2)c1)c1ccccc1
[II] CC[C@H](CO)Nc1nc(Nc2cccc(-c3ccccn3)c2)c2ncn(C(C)C)c2n1
[III] NCCNS(=O)(=O)c1ccc(Cl)c2ccncc12
[IV] Nc1[nH]nc2nc(Nc3cccc(NC(=O)Nc4ccc(F)c(Cl)c4)c3)ncc12
[V] CC(C)(C)c1cc(NC(=O)Nc2cccc(Nc3ncc4c(N)n[nH]c4n3)c2)n[nH]1
Query: Output the entries ranked by pIC50 from maximum down to minimum. Please write the labels in the order that was asked for.
Result: II, IV, V, I, III
